Origin of values: the supplement of paper PMC10883282

Please respond with reported relative viability for every item in the list.
Tested on: HT1080
test: relative viability vs DMSO control (72 h) (fraction); higher = more viable cells
protocol.conditions: 0.00457 µM
Give bare numbers.

Your task in this section: give relative viability for each listed record.
1. CNC(=O)c1ccc(-c2cnc3ncc(Cc4ccc5ncccc5c4)n3n2)cc1F
2. Cc1cnc(Nc2ccc(OCCN3CCCC3)cc2)nc1Nc1cccc(S(=O)(=O)NC(C)(C)C)c1
3. Cc1nc(-c2cn3c(n2)-c2ccc(-c4cnn(C(C)(C)C(N)=O)c4)cc2OCC3)n(C(C)C)n1
4. CC(=O)Nc1cccc(-n2c(=O)n(C3CC3)c(=O)c3c(Nc4ccc(I)cc4F)n(C)c(=O)c(C)c32)c1
5. C[C@@H](c1ccc2nccn2c1)n1nnc2ncc(-c3cnn(C)c3)nc21

Output:
[1.06, 1.06, 1.03, 0.981, 1.06]

Your task in this section: give relative viability for each listed record.
1. C=CC(=O)N1CCC([C@@H]2CCNc3c(C(N)=O)c(-c4ccc(Oc5ccccc5)cc4)nn32)CC1
2. Cn1cc(-c2cc3c(N4CCN(c5ncc([C@@](C)(N)c6ccc(F)cc6)cn5)CC4)ncnn3c2)cn1

Output:
[1.03, 1.01]

* * *

System: SW872
test: relative viability vs DMSO control (72 h) (fraction); higher = more viable cells
protocol.conditions: 3.333 µM
Please respond with reported relative viability for every item in the list.
One number for each entry.

Below: 4 compounds and their reported relative viability.
Task: Using the record for C=CC(=O)N1CCC([C@@H]2CCNc3c(C(N)=O)c(-c4ccc(Oc5ccccc5)cc4)nn32)CC1 , report its relative viability.
Output: 0.929

Task: Using the record for CC(C)(C)c1cc(NC(=O)Nc2ccc(-c3cn4c(n3)sc3cc(OCCN5CCOCC5)ccc34)cc2)no1 , report its relative viability.
Output: 1.03

Task: Using the record for C[C@@H]1CCN(C(=O)CC#N)C[C@@H]1N(C)c1ncnc2[nH]ccc12 , report its relative viability.
Output: 0.887

Task: Using the record for CCN1CCN(Cc2ccc(Nc3ncc(F)c(-c4cc(F)c5nc(C)n(C(C)C)c5c4)n3)nc2)CC1 , report its relative viability.
Output: 0.668

Okay, now this compound:
Task: Using the record for Cn1cc(-c2cc3c(N4CCN(c5ncc([C@@](C)(N)c6ccc(F)cc6)cn5)CC4)ncnn3c2)cn1 , report its relative viability.
Output: 0.766

* * *

Please respond with reported relative viability for every item in the list.
Tested on: KHOS-240S
test: relative viability vs DMSO control (72 h) (fraction); higher = more viable cells
protocol.conditions: 0.00457 µM
Answers are plain numbers.

Task: Using the record for C=CC(=O)N1CCC[C@@H](n2nc(-c3ccc(Oc4ccccc4)cc3)c3c(N)ncnc32)C1 , report its relative viability.
Output: 1.09

Task: Using the record for Cc1cc(Nc2ncnc3ccc(NC4=NC(C)(C)CO4)cc23)ccc1Oc1ccn2ncnc2c1 , report its relative viability.
Output: 1.07

Task: Using the record for C[C@@H]1CCN(C(=O)CC#N)C[C@@H]1N(C)c1ncnc2[nH]ccc12 , report its relative viability.
Output: 1.09

Okay, now this compound:
Task: Using the record for COCc1c(-c2cc3cc(C)cc(OC)c3s2)c2c(N)ncnn2c1CN1CCNC(=O)C1 , report its relative viability.
Output: 1.07

* * *

System: RD
test: relative viability vs DMSO control (72 h) (fraction); higher = more viable cells
protocol.conditions: 0.1235 µM
Where a name gives a salt, the structure may show the parent alone.
parameter.measured: relative viability
Give bare numbers.

Below: 3 compounds and their reported relative viability.
Task: Using the record for Cc1cnc(Nc2ccc(OCCN3CCCC3)cc2)nc1Nc1cccc(S(=O)(=O)NC(C)(C)C)c1 , report its relative viability.
Output: 1.09

Task: Using the record for COc1cccc2c1C(=O)c1c(O)c3c(c(O)c1C2=O)C[C@@](O)(C(=O)CO)C[C@@H]3O[C@H]1C[C@H](N)[C@H](O)[C@H](C)O1 [Doxorubicin Hydrochloride] , report its relative viability.
Output: 0.556

Task: Using the record for Cc1ccc(F)c(NC(=O)Nc2ccc(-c3cccc4[nH]nc(N)c34)cc2)c1 , report its relative viability.
Output: 1.14

Your task in this section: give relative viability for each listed record.
1. CN1CCN(c2ccc3nc(-c4c(N)c5c(F)cccc5[nH]c4=O)[nH]c3c2)CC1
2. CNC(=O)c1cc(Oc2ccc(NC(=O)Nc3ccc(Cl)c(C(F)(F)F)c3)c(F)c2)ccn1
3. CC(=O)Nc1cccc(-n2c(=O)n(C3CC3)c(=O)c3c(Nc4ccc(I)cc4F)n(C)c(=O)c(C)c32)c1
4. COCc1c(-c2cc3cc(C)cc(OC)c3s2)c2c(N)ncnn2c1CN1CCNC(=O)C1

Output:
1. 0.998
2. 1.12
3. 0.584
4. 1.1

* * *

System: SK-ES-1
test: relative viability vs DMSO control (72 h) (fraction); higher = more viable cells
protocol.conditions: 0.04115 µM
Labelling field: enter 1 if recorded relative viability is less than 1. Enter 0 if it equals or exceeds that cut-off.

These recorded examples may help you get a feel for the data.
Task: Does the reported relative viability of the following compound sit strictly below 1? CC[C@H](Nc1ncnc2[nH]cnc12)c1nc2cccc(F)c2c(=O)n1-c1ccccc1 [Idelalisib]
Output: 0

Task: Does the reported relative viability of the following compound sit strictly below 1? CC1(C)CNc2cc(NC(=O)c3cccnc3NCc3ccncc3)ccc21 [Motesanib]
Output: 1

Task: Does the reported relative viability of the following compound sit strictly below 1? Cn1cc(-c2cc3c(N4CCN(c5ncc([C@@](C)(N)c6ccc(F)cc6)cn5)CC4)ncnn3c2)cn1 [Avapritinib]
Output: 1

Here is another compound to look at.
Task: Does the reported relative viability of the following compound sit strictly below 1? CC(C)(C)c1cc(NC(=O)Nc2ccc(-c3cn4c(n3)sc3cc(OCCN5CCOCC5)ccc34)cc2)no1 [Quizartinib]
Output: 0

* * *

Test system: KHOS-240S
test: relative viability vs DMSO control (72 h) (fraction); higher = more viable cells
protocol.conditions: 0.1235 µM
Please respond with reported relative viability for every item in the list.
Numbers only.

Below: 3 compounds and their reported relative viability.
Task: Using the record for C[C@@H]1CCN(C(=O)CC#N)C[C@@H]1N(C)c1ncnc2[nH]ccc12 , report its relative viability.
Output: 1.06

Task: Using the record for CC1(C)CNc2cc(NC(=O)c3cccnc3NCc3ccncc3)ccc21 , report its relative viability.
Output: 0.97

Task: Using the record for Cc1cc(C)c(/C=C2\C(=O)Nc3ccccc32)[nH]1 , report its relative viability.
Output: 0.951

Your task in this section: give relative viability for each listed record.
1. COc1cc2/c(=N/c3ccc(Br)cc3F)nc[nH]c2cc1OCC1CCN(C)CC1
2. O=C(Nc1cnn2ccc(N3CCC[C@@H]3c3cc(F)ccc3F)nc12)N1CC[C@H](O)C1
3. COCc1c(-c2cc3cc(C)cc(OC)c3s2)c2c(N)ncnn2c1CN1CCNC(=O)C1
4. CC(C)N1CCN(Cc2cnc(-c3cc(-c4cccc5[nH]ccc45)cc4[nH]ncc34)o2)CC1
5. COc1c(OCCCN2CCOCC2)ccc2c1N=C(NC(=O)c1cnc(N)nc1)N1CCN=C21
6. C[C@@H]1COCCN1c1cc(-c2ccnn2C)c2ccnc(-c3ccn[nH]3)c2n1
7. O=C(Cc1ccc(-c2ccc(OCCN3CCOCC3)cc2)cn1)NCc1ccccc1
8. COc1cc2c(Oc3ccc4[nH]c(C)cc4c3F)ncnc2cc1OCCCN1CCCC1

Output:
[0.99, 1.09, 0.9, 0.956, 0.714, 0.366, 0.26, 0.992]

* * *

Test system: RD
test: relative viability vs DMSO control (72 h) (fraction); higher = more viable cells
protocol.conditions: 0.00152 µM
parameter.measured: relative viability
One number for each entry.

Task: Using the record for C[C@@H]1CCN(C(=O)CC#N)C[C@@H]1N(C)c1ncnc2[nH]ccc12 , report its relative viability.
Output: 1.1

Task: Using the record for CNC(=O)c1cc(Oc2ccc(NC(=O)Nc3ccc(Cl)c(C(F)(F)F)c3)c(F)c2)ccn1 , report its relative viability.
Output: 1.13

Your task in this section: give relative viability for each listed record.
1. COc1cc2nccc(Oc3ccc(NC(=O)Nc4cc(C)on4)c(Cl)c3)c2cc1OC
2. Cc1cc(C)c(/C=C2\C(=O)Nc3ccccc32)[nH]1

Output:
1: 1.13; 2: 1.06

* * *

Test system: SW982
test: relative viability vs DMSO control (72 h) (fraction); higher = more viable cells
protocol.conditions: 0.1235 µM
Please respond with reported relative viability for every item in the list.
One number for each entry.

Your task in this section: give relative viability for each listed record.
1. CC[C@H](Nc1ncnc2[nH]cnc12)c1nc2cccc(F)c2c(=O)n1-c1ccccc1 [Idelalisib]
2. COCc1c(-c2cc3cc(C)cc(OC)c3s2)c2c(N)ncnn2c1CN1CCNC(=O)C1 [Rogaratinib]
3. Cc1cnc(Nc2ccc(OCCN3CCCC3)cc2)nc1Nc1cccc(S(=O)(=O)NC(C)(C)C)c1 [Fedratinib]
4. Cc1cc(Nc2ncnc3ccc(NC4=NC(C)(C)CO4)cc23)ccc1Oc1ccn2ncnc2c1 [Tucatinib]
5. COc1c(OCCCN2CCOCC2)ccc2c1N=C(NC(=O)c1cnc(N)nc1)N1CCN=C21 [Copanlisib]

Output:
1.07
1.06
0.846
1.08
0.529
